Biological target: recombinant human MAO-B (monoamine oxidase-B) (Homo sapiens, UniProt P27338)
Construct: purchased Sigma-Aldrich
Sequence (P27338 whole entry): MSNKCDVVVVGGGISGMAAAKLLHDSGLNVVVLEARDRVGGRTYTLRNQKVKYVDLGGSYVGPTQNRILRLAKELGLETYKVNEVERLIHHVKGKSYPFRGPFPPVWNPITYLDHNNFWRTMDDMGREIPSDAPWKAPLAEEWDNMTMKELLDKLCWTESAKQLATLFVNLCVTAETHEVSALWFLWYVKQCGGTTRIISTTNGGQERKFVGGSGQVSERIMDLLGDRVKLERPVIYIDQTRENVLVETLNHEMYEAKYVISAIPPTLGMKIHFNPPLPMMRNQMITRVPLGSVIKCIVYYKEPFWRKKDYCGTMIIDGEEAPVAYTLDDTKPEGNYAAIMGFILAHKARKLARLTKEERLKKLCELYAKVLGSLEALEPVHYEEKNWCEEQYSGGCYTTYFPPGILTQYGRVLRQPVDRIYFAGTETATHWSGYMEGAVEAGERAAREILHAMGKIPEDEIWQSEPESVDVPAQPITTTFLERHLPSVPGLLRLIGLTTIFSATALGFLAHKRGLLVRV
Assay: Activity evaluation on recombinant human MAO-B (Amplex Red/HRP-coupled assay, 1 mM benzylamine substrate)
Type: biochemical
Details: 1 mM benzylamine, read-out: Inhibitory Activity (IC50, nM) MAO-B
Structures can show the parent of a compound that is named as a salt.
test-readout: log10 of IC50 (log10 of the value in nM)
Answers are given as log10 of IC50 in nM.

Field: example entries. Status: answers known.
CS(=O)(=O)c1ccc(-c2csc(Cn3cnn(CC(CN)=C(F)F)c3=O)c2)cc1 [Example 146, Trifluoroacetate]	4.52
CC(=O)c1ccc(-c2ccc(Cn3cnn(CC(CN)=C(F)F)c3=O)s2)cc1 [Example 100, trifluoroacetate]	4.04
NCC(Cn1ncn(Cc2ccc(C#Cc3ccc4c(c3)NCCO4)s2)c1=O)=C(F)F [Example 164, Ditrifluoroacetate]	4.53
Cc1cc(-c2ccc3c(c2)OCO3)cnc1-n1cnn(CC(CN)=C(F)F)c1=O [Example 72, Trifluoroacetate]	3.18
NCC(Cn1ncn(Cc2ccc(-c3cccc(N4CCNCC4)c3)s2)c1=O)=C(F)F [Example 107, Ditrifluoroacetate]	4.66
NCC(Cn1ncn(-c2cnc(-c3ccc4c(c3)OCO4)cn2)c1=O)=C(F)F [Example 93, Trifluoroacetate]	1.70

Which log10 of IC50 is reported with recombinant human MAO-B (monoamine oxidase-B) (Homo sapiens, UniProt P27338) for this entry: Cc1cc(-c2ccc(S(C)(=O)=O)cc2)cnc1-n1cnn(CC(CN)=C(F)F)c1=O [Example 68, Trifluoroacetate] ?
4.74

----------
Molecular target: recombinant human VAP-1 (Homo sapiens)
Construct: purchased R&D systems
Assay: Activity evaluation on recombinant human VAP-1 (Amplex Red/HRP-coupled hydrogen peroxide assay, benzylamine substrate)
Type: biochemical
Details: recombinant human VAP-1; 30 min preincubation at 37° C.; 1 mM benzylamine; read-out: Inhibitory Activity (IC50, nM) human VAP-1
Counter-ions that a name gives are not always drawn.
Exam item: assign yes to entries whose IC50 is below 2 nM and no to entries at or above 2 nM. Note that a value of exactly 2 nM receives no.

Cc1cc(Br)sc1Cn1cnn(CC(CN)=C(F)F)c1=O [Example 99, Trifluoroacetate]	no
NCC(Cn1ncn(Cc2ccc(C#Cc3ccc4c(c3)NCCO4)s2)c1=O)=C(F)F [Example 164, Ditrifluoroacetate]	no
CNC(=O)c1ccc(-c2ccc(Cn3cnn(CC(CN)=C(F)F)c3=O)s2)cc1 [Example 104, trifluoroacetate]	yes
NCC(Cn1ncn(-c2ccc(-c3ccc4c(c3)OCO4)nc2)c1=O)=C(F)F [Example 42, Trifluoroacetate]	yes
Cc1cc(-c2ccc(S(C)(=O)=O)cc2)sc1Cn1cnn(CC(CN)=C(F)F)c1=O [Example 154, Trifluoroacetate]	no
Cc1cc(-c2cccc(-n3cnn(CC(CN)=C(F)F)c3=O)n2)cc2c1NC(=O)CC2 [Example 51, Trifluoroacetate]	yes

Consider the record given below.
Dear reviewer, please state whether NCC(Cn1ncn(Cc2cc(-c3ccc(C(F)(F)F)nc3)cs2)c1=O)=C(F)F [Example 148, Trifluoroacetate] has IC50 strictly beneath 2 nM.
yes

----------
Target: recombinant human VAP-1 (Homo sapiens, UniProt Q16853)
Construct: purchased R&D systems
Sequence (Q16853 whole entry): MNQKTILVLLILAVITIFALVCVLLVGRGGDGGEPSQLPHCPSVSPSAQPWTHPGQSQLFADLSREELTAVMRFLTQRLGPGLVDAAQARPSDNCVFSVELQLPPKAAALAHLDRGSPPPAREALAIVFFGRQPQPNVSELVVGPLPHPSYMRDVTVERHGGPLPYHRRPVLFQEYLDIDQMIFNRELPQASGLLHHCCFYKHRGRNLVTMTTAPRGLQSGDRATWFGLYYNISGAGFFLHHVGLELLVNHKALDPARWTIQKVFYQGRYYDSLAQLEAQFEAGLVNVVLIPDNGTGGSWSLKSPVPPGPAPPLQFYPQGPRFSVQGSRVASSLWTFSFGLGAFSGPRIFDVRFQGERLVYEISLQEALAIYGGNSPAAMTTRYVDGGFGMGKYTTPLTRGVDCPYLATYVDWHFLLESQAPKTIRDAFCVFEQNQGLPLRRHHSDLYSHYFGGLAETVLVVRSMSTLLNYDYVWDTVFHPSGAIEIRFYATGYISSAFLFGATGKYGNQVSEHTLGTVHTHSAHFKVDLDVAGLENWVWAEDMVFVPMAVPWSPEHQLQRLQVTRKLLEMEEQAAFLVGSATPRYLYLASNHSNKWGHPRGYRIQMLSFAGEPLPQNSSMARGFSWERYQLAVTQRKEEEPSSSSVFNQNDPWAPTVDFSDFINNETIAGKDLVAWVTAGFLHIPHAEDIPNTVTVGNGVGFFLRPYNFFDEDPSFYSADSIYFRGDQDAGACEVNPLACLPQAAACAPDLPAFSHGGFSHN
Assay: Activity evaluation on recombinant human VAP-1 (Amplex Red/HRP-coupled hydrogen peroxide assay, benzylamine substrate)
Format: biochemical
Details: recombinant human VAP-1; 30 min preincubation at 37° C.; 1 mM benzylamine; read-out: Inhibitory Activity (IC50, nM) human VAP-1
Counter-ions that a name gives are not always drawn.
Catalogue of IC50 readings, one per entry.
Give just the numeric value; nM need not be written.

Worked cases, answers included:
Cn1cc(C#Cc2cccc(-n3cnn(CC(CN)=C(F)F)c3=O)n2)cn1 [Example 160, trifluoroacetate]	1.5
Cc1cc(-c2csc(Cn3cnn(CC(CN)=C(F)F)c3=O)c2)cc2c1NC(=O)CC2 [Example 151, Trifluoroacetate]	0.3
NCC(Cn1ncn(Cc2ccc(-c3cc(F)c4c(c3)CCC(=O)N4)s2)c1=O)=C(F)F [Example 136, Trifluoroacetate]	0.4
Cn1cc(-c2ccc(Cn3cnn(CC(CN)=C(F)F)c3=O)s2)ccc1=O [Example 121, Trifluoroacetate]	0.9
CN1C(=O)CCc2cc(-c3csc(Cn4cnn(CC(CN)=C(F)F)c4=O)c3)ccc21 [Example 152, Trifluoroacetate]	0.2

Need IC50, item NCC(Cn1ncn(-c2cc(-c3ccc(N4CCNCC4)cc3)ccn2)c1=O)=C(F)F [Example 55, Ditrifluoroacetate]
6.6

And then CCn1cc(-c2ccc(CCn3cnn(CC(CN)=C(F)F)c3=O)s2)cn1 [Example 180, Trifluoroacetate] , what is it?
0.6
